Property: IC50; scope: individual molecules
Tested on: HS-766T
Test: Cell viability MTT assay (Example 3)
Format: cell-based
Details: Hs766T, 72 h, Pancreatic, MTAP Positive, 3 days

- NC(CN(O)N=O)C(=O)O (centres unmarked): > 20 µM

# context switch: different molecule, same IC50
Query: GET /values?readout=IC50&system=HS-766T&item= "Nc1nc2[nH]cc(CCc3ccc(C(=O)N[C@@H](CCC(=O)O)C(=O)O)cc3)c2c(=O)[nH]1"
Response: > 20 µM

* * *

Tested on: NCI-H2452
Test: Cell viability MTT assay (Example 3)
Assay type: cell-based
Conditions: Homo sapiens, 72 h; NCI-H2452, Mesothelioma, MTAP Negative; 3 days
Property: IC50; scope: individual molecules
Please give a number only; it is taken to be in µM.

- Nc1nc2[nH]cc(CCc3ccc(C(=O)N[C@@H](CCC(=O)O)C(=O)O)cc3)c2c(=O)[nH]1 [pemetrexed]: 0.05

# context switch: different molecule, same IC50
Query: So what's the measured IC50 for this one? NC(CN(O)N=O)C(=O)O [L-alanosine]
Response: 0.5

* * *

Assay: physchem
Type: physicochemical
Settings: pKa (second)
READOUT LABEL: pKa

Query: So what's the measured pKa for this one? NC(CN(O)N=O)C(=O)O [L-alanosine]
Response: ~8.5

* * *

Tested on: NCI-H226
Experiment: Cell viability MTT assay (Example 3)
Assay type: cell-based
Conditions: Homo sapiens, 72 h; NCI-H226, Mesothelioma, MTAP Positive; 3 days
READOUT LABEL: pIC50
pIC50 field: float, defined as -log10 of concentration (mol/L).

* Nc1nc2[nH]cc(CCc3ccc(C(=O)N[C@@H](CCC(=O)O)C(=O)O)cc3)c2c(=O)[nH]1 [pemetrexed] | 6.00

# context switch: different molecule, same pIC50
Query: GET /values?readout=pIC50&system=NCI-H226&item= NC(CN(O)N=O)C(=O)O [L-alanosine]
Response: 5.82

* * *

Assay: physchem
Type: physicochemical
Details: pKa (first)
READOUT LABEL: pKa

Query: So what's the measured pKa for this one? NC(CN(O)N=O)C(=O)O (stereo not shown)
Response: ~5.5

* * *

System: A-427
Assay: Cell viability MTT assay (Example 3)
Type: cell-based
Conditions: Homo sapiens, 72 h; A-427, NSCLC, MTAP Positive; 3 days
Property: pIC50; scope: individual molecules
pIC50 field: float, defined as -log10 of concentration (mol/L).

• NC(CN(O)N=O)C(=O)O (centres unmarked) = 5.48

Query: So what's the measured pIC50 for this one? "Nc1nc2[nH]cc(CCc3ccc(C(=O)N[C@@H](CCC(=O)O)C(=O)O)cc3)c2c(=O)[nH]1"
Response: 5.52

* * *

Test system: BxPC3
Assay: Cell viability MTT assay (Example 3)
Assay type: cell-based
Conditions: Homo sapiens, BXPC-3, 72 h; BxPC3, Pancreatic, MTAP Negative; 3 days
READOUT LABEL: pIC50
pIC50 field: float, defined as -log10 of concentration (mol/L).

• NC(CN(O)N=O)C(=O)O (centres unmarked) = 5.22

# context switch: different molecule, same pIC50
Query: So what's the measured pIC50 for this one? "Nc1nc2[nH]cc(CCc3ccc(C(=O)N[C@@H](CCC(=O)O)C(=O)O)cc3)c2c(=O)[nH]1"
Response: 7.30
